Where do these numbers come from? They come from the supplement of paper PMC10567573.

# key: entry, value: protein stability index
B1: EFHC1 (parent)
chain: NIYYYLEDDSMSVIEPVVENSGIL

Variants of: B1
Assay: protein stability index of a GFP-peptide fusion (GPS, HEK-293T) (PSI 1-6); higher = more stable;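 further: lentivirally expressed fusions sorted by FACS into six bins by GFP to DsRed ratio, PSI derived from sequencing read proportions per bin multiplied by bin number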
Conditions: c terminus: a fixed tail appended
READOUT LABEL: protein stability index

1. Y3F    2.07
2. L6E    2.88
3. E7P    1.92
4. L24H    2.31
5. G22C    1.62
6. M11G    2.05
7. D9Y    4.3
8. V13E    3.1
9. S10L    1.14
10. V18Y    1.67
11. L24R    2.46
